We begin with IC50 values for Oxysterols receptor LXR-beta (Homo sapiens, UniProt P55055), as collected from the published literature.
QUANTITY_MEASURED: IC50 (nM)

molecule=CCc1nc2c(Cl)cccn2c1-c1cccc(Oc2cccc(S(=O)(=O)N(C)Cc3ccc(OC)cc3)c2)c1 number=14.7
molecule=Cc1cc(NCc2ccsc2-c2c(Cc3ccccc3)cnc3c(C(F)(F)F)cccc23)c(C)cc1CC(=O)O number=427
molecule=CS(=O)(=O)c1cccc(-c2nnc(CN(Cc3ccccc3)S(=O)(=O)c3ccccc3C(F)(F)F)o2)c1 number=5410
molecule=CCS(=O)(=O)c1cc(F)cc(Oc2ccc(Cl)c(-n3c(C)nc4c(Cl)cccc43)c2)c1 number=432
molecule=CCc1nc2c(C#N)cccn2c1-c1cccc(Oc2cccc(S(C)(=O)=O)c2)c1 number=161
molecule=O=C(O)Cc1cccc2c(NCc3cncc(-c4c(Cc5ccccc5)cnc5c(C(F)(F)F)cccc45)c3)cccc12 number=30

P = Cc1nc2c(Cl)cccc2n1-c1cc(Oc2ccccc2S(C)(=O)=O)ccc1Cl
Q = CCS(=O)(=O)c1cccc(C(=O)Oc2cccc(-c3c(C)cnc4c(C(F)(F)F)cccc34)c2)c1
// max by IC50 over [ P , Q ] State your choice using its label.
P
(P: 309 nM, Q: 8.6 nM)

----------
We begin with pIC50 values for Oxysterols receptor LXR-beta (Homo sapiens), as collected from the published literature.
pIC50: −log10 of the molar value.
QUANTITY_MEASURED: pIC50

P = O=C(O)Cc1cccc2ccc(OCc3cccc(-c4c(Cc5ccccc5)cnc5c(C(F)(F)F)cccc45)c3)cc12
Q = CCS(=O)(=O)c1cccc(Oc2ccc(Cl)c(-c3nc(C)nc4c(C(F)(F)F)cccc34)c2)c1
R = Cc1nc2c(Cl)cccc2n1-c1cccc(Oc2cc(Cl)cc(S(C)(=O)=O)c2)c1
Place the items in sequence of falling pIC50. Write out the labels following the order that was asked for.
R, Q, P

A = CS(=O)(=O)c1cccc(COc2ccc(F)c(-c3ncnc4c(C(F)(F)F)cccc34)c2)c1
B = CC(C)N1C(=O)N(S(C)(=O)=O)CC1c1cccc(-c2cccc(S(C)(=O)=O)c2)c1 (stereo not drawn)
Lab log: flag the item ( A or B ) with the smaller pIC50 figure. State your choice using its label.
B

A = O=C(O)c1ccc2cc(NCc3cncc(-c4c(Cc5ccccc5)cnc5c(C(F)(F)F)cccc45)c3)ccc2c1
B = Cc1nc2c(C(F)(F)F)cccc2nc1-c1cc(Oc2ccc(S(C)(=O)=O)cc2)ccc1Cl
// max by pIC50 over [ A , B ] State your choice using its label.
A

----------
We begin with IC50 values for Oxysterols receptor LXR-beta (Homo sapiens, UniProt P55055), as collected from the published literature.
QUANTITY_MEASURED: IC50 (nM)

compound=Cc1cnc2c(C(F)(F)F)cccc2c1-c1cccc(OC(=O)c2cc(S(C)(=O)=O)ccc2Cl)c1 number=19
compound=Cc1nccn1Cc1nc2c(C(F)(F)F)cccn2c1-c1cccc(Oc2cccc(S(C)(=O)=O)c2)c1 number=230
compound="CS(=O)(=O)Nc1cccc(-c2ccc(C3CN(S(=O)(=O)c4ccccc4)C(=O)N3c3ccccc3)cc2)c1 (stereo not shown)" number=360
compound=CS(=O)(=O)c1cccc(C(=O)Oc2cccc(-c3c(-c4ccccc4)cnc4c(C(F)(F)F)cccc34)c2)c1 number=2.3
compound=Cc1nc(-c2cc(Oc3cccc(S(=O)(=O)C(C)C)c3)ccc2Cl)c2cccc(C(F)(F)F)c2n1 number=16
compound="CS(=O)(=O)c1cccc(-c2ccc(CN(CC3CCCO3)S(=O)(=O)c3ccccc3C(F)(F)F)s2)c1 (stereo not shown)" number=37
compound=Cc1cc(NCc2cscc2-c2c(Cc3ccccc3)cnc3c(C(F)(F)F)cccc23)c(C)cc1CC(=O)O number=813
compound=O=C(O)c1cccc2c(NCc3cncc(-c4c(Cc5ccccc5)cnc5c(C(F)(F)F)cccc45)c3)cccc12 number=210

A = Cn1c(C(=O)O)cc2cccc(NCc3cccc(-c4c(Cc5ccccc5)cnc5c(C(F)(F)F)cccc45)c3)c21
B = COc1cccc(NCc2cccc(-c3c(Cc4ccccc4)cnc4c(C(F)(F)F)cccc34)c2)c1C(=O)O
Lab log: flag the item ( A or B ) with the smaller IC50 figure. State your choice using its label.
A
